Value source: patent US12286428B2

- Target: IRAK4 (Homo sapiens, UniProt Q9NWZ3)
- Sequence (Q9NWZ3 whole entry): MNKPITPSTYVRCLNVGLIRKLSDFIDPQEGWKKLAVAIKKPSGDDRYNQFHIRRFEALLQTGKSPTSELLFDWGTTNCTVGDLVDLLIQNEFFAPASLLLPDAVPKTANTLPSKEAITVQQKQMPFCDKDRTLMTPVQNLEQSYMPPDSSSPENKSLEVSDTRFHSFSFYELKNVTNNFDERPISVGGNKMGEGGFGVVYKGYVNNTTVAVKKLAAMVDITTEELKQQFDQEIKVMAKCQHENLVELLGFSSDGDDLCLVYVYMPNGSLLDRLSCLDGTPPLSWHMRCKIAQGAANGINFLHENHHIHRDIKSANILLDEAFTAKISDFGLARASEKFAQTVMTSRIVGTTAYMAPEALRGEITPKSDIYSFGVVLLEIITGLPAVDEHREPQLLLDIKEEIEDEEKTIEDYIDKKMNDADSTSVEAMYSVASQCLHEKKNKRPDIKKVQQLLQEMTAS
- Method Summary: IRAK4 Inhibition Assay
- Type: biochemical
- Condition Set: ATP 500 μM; FL-IPTSPITTTYFFFKKK peptide […]; IRAK4 0.6 nM; 60 min room temperature; Caliper LABCHIP 3000
Value Kind: IC50 (µM)

Some solved cases for reference:
> print(dat)
                                   molecule  value.kind  result.number
1  CC[C@@H]1[C@H](F)C(=O)N[C@@H]1COC1=CC(F)=CC2C=C(C(N)=O)c3nccn3C12 (some centres unmarked)        IC50         0.0154
2  CC[C@@H]1[C@H](F)C(=O)N[C@@H]1COc1ccc(F)c2cc(C(N)=O)c3nccn3c12        IC50         0.0082
3  NC(=O)c1cc2cccc(OC[C@@H]3CCC(=O)N3)c2n2ccnc12        IC50         0.0206
4  CC[C@@H]1[C@H](F)C(=O)N[C@@H]1COc1cccc2cc(C(N)=O)c3nc(C(C)(C)O)cn3c12        IC50           1.43
5  CC[C@@H]1[C@H](F)C(=O)N[C@@H]1COc1cccc2cc(C(N)=O)c3nccn3c12        IC50         0.0013
6  CC[C@H]1[C@@H](COc2cccc3cc(C(N)=O)c4nccn4c23)NC(=O)[C@@H]1F        IC50         0.0026

P. CC[C@@H]1CC(=O)N[C@@H]1COc1cccc2cc(C(N)=O)c3nnnn3c12
Q. CC[C@@H]1[C@H](F)C(=O)N[C@@H]1COc1nccc2cc(C(N)=O)c3ncccc3c12
Challenge: Which has the smaller recorded IC50, P or Q ? Kindly give the label for the entry you pick.
Response given: Q
(Q: 0.0028 µM, P: 0.0096 µM)

A. CC[C@@H]1CC(=O)N[C@@H]1COc1cccc2cc(C(N)=O)c3nncn3c12
B. CC[C@H]1OCC(=O)N[C@H]1COc1nccc2cc(C(N)=O)c3nccn3c12
Challenge: Which has the higher IC50, A or B ? Kindly give the label for the entry you pick.
Response given: B
(B: 1.93 µM, A: 0.0422 µM)

---

- Target: IRAK4 (Homo sapiens, UniProt Q9NWZ3)
- Method Summary: IRAK4 Inhibition Assay
- Assay type: biochemical
- Condition Set: ATP 500 μM; FL-IPTSPITTTYFFFKKK peptide […]; IRAK4 0.6 nM; 60 min room temperature; Caliper LABCHIP 3000
Value Kind: IC50 (µM)

> print(dat)
                                smiles.data  measurement.unit  result.number
1  CC[C@H]1CC(=O)N[C@@H]1COc1cccc2cc(C(N)=O)c3nncn3c12                µM           0.29

A. CC[C@@H]1OC(=O)N[C@@H]1COc1nccc2cc(C(N)=O)c3nccn3c12
B. CC[C@@H]1CC(=O)N[C@@H]1COc1nccc2cc(C(N)=O)c3nc(C)cn3c12
Challenge: Which has the higher IC50, A or B ? Kindly give the label for the entry you pick.
Response given: B

---

- Target: UniProtKB Q9NWZ3
- Method Summary: IRAK4 Inhibition Assay
- Assay type: biochemical
- Condition Set: ATP 500 μM; FL-[…] peptide 1.5 μM; IRAK4 0.6 nM; 60 min room temperature; Caliper LABCHIP 3000
Value Kind: IC50 (nM)

1. CC[C@@H]1CC(=O)N[C@@H]1COc1nccc2cc(C(N)=O)c3ncnn3c12 [Example 46]
2. CC[C@@H]1CC(=O)N[C@@H]1COc1nccc2cc(C(N)=O)c3nc(C(F)(F)F)cn3c12 [Example 30]
Challenge: Which has the smaller recorded IC50, 1 or 2 ? Kindly give the label for the entry you pick.
Response given: 1
